- study-system: Thymidylate kinase (Plasmodium falciparum (isolate 3D7), UniProt Q8I4S1)
- Sequence (Q8I4S1 whole entry): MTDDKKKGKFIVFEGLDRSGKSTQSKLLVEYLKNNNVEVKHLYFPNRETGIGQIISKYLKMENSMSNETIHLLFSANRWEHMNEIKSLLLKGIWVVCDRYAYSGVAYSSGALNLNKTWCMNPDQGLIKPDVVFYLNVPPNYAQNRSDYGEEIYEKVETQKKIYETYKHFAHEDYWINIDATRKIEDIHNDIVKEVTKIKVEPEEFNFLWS
- protocol-description: Inhibition of recombinant Plasmodium falciparum TMPK using TMP as substrate by pyruvate kinase and lactate dehydrogenase enzyme coupled assay
observed-property: pKi
The quantity pKi is defined as the negative base-10 logarithm of the molar concentration.

pKi recorded for this compound, "Cc1cn([C@@H]2C[C@H](O)[C@@H](CNC(=O)Nc3ccccc3Cl)O2)c(=O)[nH]c1=O" , is 3.69

Form field pKi, entry "Cc1cn([C@@H]2C[C@H](O)[C@@H](CNC(=S)Nc3ccc(Cl)c(C(F)(F)F)c3)O2)c(=O)[nH]c1=O" : 4.51

"Cc1cn([C@@H]2C[C@H](O)[C@@H](CNC(=O)Nc3ccc(C(C)(C)C)cc3)O2)c(=O)[nH]c1=O" has a reported pKi of 3.78

The reported pKi of the compound "COc1ccccc1NC(=O)NC[C@H]1O[C@@H](n2cc(C)c(=O)[nH]c2=O)C[C@@H]1O" was 3.97

# compound "Cc1cn([C@H]2C[C@H](O)[C@@H](CNC(=O)Nc3ccc(Br)cc3)O2)c(=O)[nH]c1=O" ; its pKi = 4.82

Short answer for "Cc1cn([C@H]2C[C@H](O)[C@@H](CNCc3ccc([N+](=O)[O-])cc3)O2)c(=O)[nH]c1=O" : pKi was 3.13

Note to self: pKi recorded for "Cc1cn([C@@H]2C[C@H](O)[C@@H](CNC(=O)Nc3ccc([N+](=O)[O-])cc3)O2)c(=O)[nH]c1=O" was 4.96

# compound "Cc1cn([C@H]2C[C@H](O)[C@@H](CNC(=O)Nc3ccc([N+](=O)[O-])cc3)O2)c(=O)[nH]c1=O" ; its pKi = 4.96

Per the records, this compound ( "Cc1cn([C@H]2C[C@H](O)[C@@H](CNC(=S)Nc3ccc(Br)cc3)O2)c(=O)[nH]c1=O" ) has pKi equal to 4.49

"Cc1cn([C@@H]2C[C@H](O)[C@@H](CNC(=S)Nc3ccc(Cl)cc3)O2)c(=O)[nH]c1=O" has a reported pKi of 4.05

So for "Cc1cn([C@H]2C[C@H](O)[C@@H](CNC(=S)Nc3ccc(Cl)cc3)O2)c(=O)[nH]c1=O" , the logged pKi turned out to be 4.43

Reported pKi for "Cc1cn([C@H]2C[C@H](O)[C@@H](CNC(=O)Nc3ccc(Cl)cc3)O2)c(=O)[nH]c1=O" was 4.85

Reported pKi for "Cc1cn([C@H]2C[C@H](O)[C@@H](CNC(=O)NCc3ccccc3)O2)c(=O)[nH]c1=O" was 4.19
